Experiment: NCI Yeast Anticancer Drug Screen. Data for the mlh1 rad18 strain (AID 175)
Settings: S. cerevisiae mlh1 rad18 strain growth inhibition; at 5.0 µM (retest, dose inferred, filed as 0.5); stronger effect = higher value
Protocol: Growth inhibition of yeast strains with defined genetic alterations is measured as a screen for potential anti-cancer activity. Selected strains with alterations in DNA damage repair or cell cycle control were exposed to compounds and growth inhibition was measured relative to vehicle treated controls. The strain used in this assay is mlh1 rad18
Compounds without any hit were thinned out: in the full panel of roughly 79,000, 15% have a hit.
property name: growth inhibition (%)
Give bare numbers, in %.

Some solved cases for reference:
                                   molecule  readout_number
0                         BrCc1ccc2ncccc2c1               1
1  O=C(CCCC(=O)NNC(=O)Nc1cccc(S(=O)(=O)F)c1)NNC(=O)Nc1cccc(S(=O)(=O)F)c1               9
2  C[C@]12CC[C@H]3[C@@H](C[C@@H](F)C4=CC(=O)CC[C@@]43C)[C@@H]1CC[C@@H]2O              15
3                    Nc1ccc(N=Nc2ccccc2)cc1               1

Quick one: give me growth inhibition for each item below, same order please.
1. COC1=C(C)C(=O)C2=C(C1=O)C(CO)N1C(C#N)C3CC4C(C1C2N1CCOC41)N3C (centres undefined)
2. CCC[CH2][Sn]([Cl])([CH2]C)[O][Sn]([Cl])([CH2]C)[CH2]CCC (centres undefined)
3. O=C(CCl)c1ccc(O)cc1
4. COc1ccc(-c2c(C)c(C(=O)O)nc(-c3ccc4c(O)c(OC)c5c(c4n3)=NC(C)(C)N=5)c2N)c(O)c1OC
5. CC1CC(Br)C(=O)O1 (centres undefined)
6. COC(COC(N)=O)C1=C(N2CC2)C(=O)C(C)=C(N2CC2)C1=O (centres undefined)
7. CC(NCCN(C)C)C1CC2CCCCN2C1 (centres undefined)

1: 19; 2: 95; 3: 22; 4: 59; 5: -9; 6: 76; 7: -3

###

experiment: NCI Yeast Anticancer Drug Screen. Data for the rad50 strain (AID 155);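 further: 0% = growth of vehicle-only cultures of the same strain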; settings: S. cerevisiae rad50 strain growth inhibition; at 5.0 µM (retest, dose inferred, filed as 0.5); stronger effect = higher value
The panel holds about 79,000 compounds, 15% with a hit somewhere; the sample as a whole holds those more often.
property name: growth inhibition (%)
Give bare numbers, in %.

Some solved entries appear below for comparison.
compound	readout number
COC12[C@@H]3N[C@@H]3CN1C1=C(C(=O)C(NCCSSCCNC3=C(C)C(=O)C4=C(C3=O)C(COC(N)=O)[C@]3(OC)C5N[C@@H]5CN43)=C(C)C1=O)[C@@H]2COC(N)=O (some centres not stated)	35
O=C1C(=O)c2cccc3cccc1c23	8
COC(=O)c1c(C)ccc2c(O)c3c(cc12)C(=O)c1c2c(cc(O)c1C3=O)C1(C)OC(C)(O2)C(O)C(N(C)C)C1O (configuration not stated)	10
CNC(=O)OCC1C2=C(C(=O)C(C)=C(N)C2=O)N2CC3C(N3C)C12OC (configuration not stated)	37
CC[C@@]1(O)C[C@H](OC2CC(N)C(O)C(C)O2)c2c(O)c3c(c(O)c2[C@H]1C(=O)OC)C(=O)c1cccc(O)c1C3=O (some centres not stated)	63

State the recorded growth inhibition for every item in the following list.
1. O=S(=O)(O)O.[Pt].c1ccc([PH+](c2ccccc2)c2ccccc2)cc1.c1ccc([PH+](c2ccccc2)c2ccccc2)cc1.c1ccc([PH+](c2ccccc2)c2ccccc2)cc1
2. C/C1=C\[C@@H](O)C(=O)/C=C/C=C\c2csc(n2)[C@@H](C)NC(=O)C[C@@]2(CC1)S(=O)SC(=O)[C@]2(C)O (some centres not stated)
3. c1c(N2CCOCC2)ssc1=[N+]1CCOCC1

23
92
4

Batch of 2 compounds: report growth inhibition for each.
1. CC1=C(CO)C(=O)OC(C(C)C2CCC3C4CC5OC56C(O)C(N5CC5)=CC(=O)C6(C)C4CCC23C)C1 (configuration not stated)
2. COc1ccc2c3c1OC1C(=O)C4CC5(c6c(O)ccc(O)c64)C(C2)N(C)CCC315 (configuration not stated)

1: -7; 2: -6

Provide the reported growth inhibition of each entry below, same order.
1. CCN(CC)CC(=O)O[C@]1(CC)C(=O)OCc2c1cc1n(c2=O)Cc2cc3ccccc3nc2-1
2. COc1ccc(-c2c(C)c(C(=O)O)nc(-c3ccc4c(O)c(OC)c5c(c4n3)=NC(C)(C)N=5)c2N)c(O)c1OC

93
76

# return growth inhibition for each item in the list
1. c1ccc(CCNCc2ccccc2)cc1
2. CCC[CH2][Sn]1([CH2]CCC)[O]Cc2nc(C)ccc2[O]1
3. C[CH2][Sn]([CH2]C)([S]CCS(=O)(=O)O)[S]CCS(=O)(=O)O (tested in a mixture with another compound)
4. CC1=[N+](Cc2cc(C)cc(C)c2O)CCCC1
5. CC(C)=[CH][Sb]([Br])([CH]=C(C)C)([CH]=C(C)C)[CH]=C(C)C

1. -2
2. 27
3. 18
4. -5
5. -1
